- target under test: 17-beta-hydroxysteroid dehydrogenase type 1 (Homo sapiens)
- Sequence (P14061 whole entry): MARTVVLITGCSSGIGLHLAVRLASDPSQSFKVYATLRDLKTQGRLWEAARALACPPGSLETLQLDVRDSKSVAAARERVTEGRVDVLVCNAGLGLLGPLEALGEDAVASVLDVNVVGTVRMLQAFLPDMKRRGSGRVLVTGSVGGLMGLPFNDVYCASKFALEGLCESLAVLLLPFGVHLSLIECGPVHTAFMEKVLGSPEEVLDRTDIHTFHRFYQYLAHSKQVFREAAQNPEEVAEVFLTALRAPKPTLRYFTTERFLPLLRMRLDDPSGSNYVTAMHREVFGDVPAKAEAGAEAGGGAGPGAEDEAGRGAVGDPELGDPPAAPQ
- assay method text: Displacement of [3H]E1 from human placental 17beta-HSD1 after 10 mins by fluid scintillation counting
Please assign False whenever IC50 is at or above 50 nM, and True whenever it is below.

> print(dat)
                              record.smiles  assigned.class
1  CS(=O)(=O)Nc1cccc(-c2c(O)ccc3cc(-c4cccc(O)c4)ccc23)c1            True
2  Oc1cccc(-c2ccc3c(-c4cccnc4)c(O)ccc3c2)c1            True
3  Nc1cccc(-c2c(O)ccc3cc(-c4cccc(O)c4)ccc23)c1           False
4   Oc1cccc(-c2ccc3c(-c4ccoc4)c(O)ccc3c2)c1           False
5  Oc1cccc(-c2ccc3c(-c4ccncc4)c(O)ccc3c2)c1           False

# next compound below
Problem: Please state whether IC50 is below 50 nM for `Oc1cccc(-c2ccc3c(-c4cccc(O)c4)c(O)ccc3c2)c1`
Result: True
